All values here come from patent US20230077362A1.

- Tested on: Cabbage Looper (Trichoplusia ni) ("CL"), second instar larvae
- assay explanation: Bioassay on cabbage looper (CL), 128-well diet tray assay
- Type: in vivo
- reported conditions: Trichoplusia ni, read-out: CL (Biological Results, rating)
assay metric: pest or weed control at 50 µg/cm2

Field: example entries. Status: answers known.
molecule	pest or weed control at 50 µg/cm2
CCOCc1ccc(C)cc1N1C(=O)CS/C1=N\C(=O)Nc1ccc(-c2ncn(-c3ccc(OC(F)(F)F)cc3)n2)cc1Br [Compound J221]	50 to 100%
Cc1ccc(OCC(F)(F)F)c(N2C(=O)CS/C2=N\C(=O)Nc2ccc(-c3ncn(-c4ccc(OC(F)(F)F)cc4)n3)cc2C)c1 [Compound J55]	50 to 100%

--- query ---
Output measured pest or weed control at 50 µg/cm2 for this item: CCCc1ccc(C)cc1N1C(=O)CS/C1=N\C(=O)Nc1ccc(-c2ncn(-c3ccc(C(F)(F)F)cc3)n2)cc1C [Compound J15] 50 to 100%
